Entries annotated with measured Acquisition time
Tested on: Mus musculus
Assay: Acquisition time in (R)-PIA) induced avoidance test (performed in mice) for antagonistic activity after p.o. administration of 1.25 mg/kg
Type: functional
Details: route oral
The answer is to be given in s; state only the numeric part.

IN: Indicate the recorded Acquisition time value for this molecule: COc1cc(/C=C/c2nc3c(c(=O)n(C)c(=O)n3C)n2C)cc(OC)c1OC
OUT: 24.7

IN: Indicate the recorded Acquisition time value for this molecule: CC(C)Cn1c(=O)n(C)c(=O)c2[nH]c(C(C3CC3)C3CC3)nc21
OUT: 19.9

IN: Indicate the recorded Acquisition time value for this molecule: CCCn1c(=O)c2nc(C34CC5CC(CC3C5)C4)[nH]c2n(CCC)c1=S
OUT: 18.4

IN: Indicate the recorded Acquisition time value for this molecule: CCCn1c(=O)c2nc(C(C3CC3)C3CC3)[nH]c2n(CCC)c1=S
OUT: 30.5

IN: Indicate the recorded Acquisition time value for this molecule: CCCN1C(=O)N2CC(CC)N=C2c2[nH]c(C34CC5CC(CC3C5)C4)nc21 (racemic)
OUT: 21.2

---
IN: Indicate the recorded Acquisition time value for this molecule: CCCN1C(=O)N2C[C@@H](CC)N=C2c2[nH]c(C34CC5CC(CC3C5)C4)nc21
OUT: 16.5

IN: Indicate the recorded Acquisition time value for this molecule: CCCn1c(=O)c2nc(C34CC5CC(CC3C5)C4)[nH]c2n(CCc2ccc(N)cc2)c1=O
OUT: 20.3

IN: Indicate the recorded Acquisition time value for this molecule: CCCN1C(=O)N2C[C@H](CC)N=C2c2[nH]c(C34CC5CC(CC3C5)C4)nc21
OUT: 14.3

IN: Indicate the recorded Acquisition time value for this molecule: CCCn1c(=O)c2nc(C3CCCC3)[nH]c2n(CCc2ccc(NC(=O)C(C)C)cc2)c1=O
OUT: 33.3

IN: Indicate the recorded Acquisition time value for this molecule: CCCn1c(=O)c2nc(C3CCCC3)[nH]c2n(CCc2ccc(NC(C)=O)cc2)c1=O
OUT: 18.8

IN: Indicate the recorded Acquisition time value for this molecule: CCCn1c(=O)c2nc(C34CC5CC(CC(C5)C3)C4)[nH]c2n(CCC)c1=O
OUT: 19.8

IN: Indicate the recorded Acquisition time value for this molecule: CCCn1c(=O)c2[nH]c(C3CCCC3)nc2n(CCC)c1=S
OUT: 12.3

IN: Indicate the recorded Acquisition time value for this molecule: CCCn1c(=O)c2nc(C3CC4CCCC4C3)[nH]c2n(CCC)c1=O (stereo not given)
OUT: 14.5

IN: Indicate the recorded Acquisition time value for this molecule: CCCn1c(=O)c2c(nc(/C=C/c3ccc(OC)c(OC)c3)n2C)n(CCC)c1=O
OUT: 25.3

IN: Indicate the recorded Acquisition time value for this molecule: CCCn1c(=O)c2nc(C3CCC(=O)C3)[nH]c2n(CCc2ccc(N)cc2)c1=O (stereo not given)
OUT: 14.6

The reported numbers originate from ChEMBL document CHEMBL1126778.
